B1: KLHL14 (parent)
chain: NETGYLSSVECYNLETNEWRYVSS

# Variants of: B1
# TEST_METHOD_NOTES: protein stability index of a GFP-peptide fusion (GPS, HEK-293T) (PSI 1-6); higher = more stable;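 note: lentivirally expressed fusions sorted by FACS into six bins by GFP to DsRed ratio, PSI derived from sequencing read proportions per bin multiplied by bin number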
# RUN_CONDITIONS: c terminus: a fixed tail appended
Rule: Yes for protein stability index not less than 3, No for anything less.

Reference set, count: 5
In [3]: df
Out[3]:
   mutant_label  answer_label
0          Y21I            No
1          E15P            No
2          R20T            No
3           S7L            No
4          S24F           Yes

Now, please, on to the next variant.
query: Tell me whether protein stability index is at least 3 here: E10L
result: No
